Please go through the items and note down their Fold increase in bacterial susceptibility to colistin.
system: Pseudomonas aeruginosa PAO1; experiment: Colistin broth microdilution MIC with potentiator compounds (Example 1); format: cell-based; conditions: P. aeruginosa PAO1; MIC in the presence of 1.0% DMSO / MIC in the presence of 0.1 mM potentiator compound and 1.0% DMSO; positive = increased, negative = decreased susceptibility, 1 = no effect

Lab book: Fold increase in bacterial susceptibility to colistin of `O=C(NCC(=O)N1CCN(c2cccc(Cl)c2)CC1)c1cccc(NC(=O)c2cccnc2)c1` noted as 1 fold

Given item `O=C(CCCN1C(=O)c2cccc3cccc(c23)C1=O)N1CCN(c2ccccc2O)CC1` , the value recorded as its Fold increase in bacterial susceptibility to colistin is 1 fold

Reported Fold increase in bacterial susceptibility to colistin of `N#Cc1cccc(CN2CCC(c3cnn(Cc4cccc(C#N)c4)c3)CC2)c1` : 1 fold

Fold increase in bacterial susceptibility to colistin for `CCOC(=O)c1cc2cc(C(=O)N3CCN(Cc4cccc(C(F)(F)F)c4)CC3)ccc2[nH]1` is +2 fold

Entry under test: `CN(C)CCNC(=O)c1cccc(CNC(=O)Nc2ccc3c(c2)Cc2ccccc2-3)c1` . Its Fold increase in bacterial susceptibility to colistin was +2 fold
